# Assay Notes: yeast display, Sf9 membrane polyspecificity reagent, FACS + sequencing; frameworks hold sequencing errors
Observation Type: polyreactivity (PSR sort gate)

ordered_residues=QVQLVESGGGLVQAGGSLRLSCAASGFTFSFYAMGWYRQAPGKERELVAPISYSGGITYYADSVKGRFTISRENWKNTVYLQMNSLKPEDTAVYYCAAVPYYSKGSSHYNSGNNYCGQGTQVTVSS measurement="low polyreactivity"
ordered_residues=QVQLVESGGGLVQAGGSLRLSCAASGFTFRAYAMGWYRQAPGKERELVAGISGSGGRTYYADSVKGRFTISRDNAKNTVYLQMNSLKPEDTAVYYCAAEYRLYGYQYDYWGQGTQVTVSS measurement="high polyreactivity"
ordered_residues=QVQLQESGGGLVQAGGSLRLSCAASGSIFDYVSMGWYRQAPGEERELVVTITLGSNTYYADSVKGRFTISSDIAKNSVYLQMNSLNPEDTAVYYCAASALWGYVYPYWGLGTQVTVSS measurement="high polyreactivity"
ordered_residues=QVQLVESGGGLVQAGGSLRLSCAASGIIFGAYAMGWYRQAPGKERELVAAITYSSGSTYYADSVKGRFTISRDNAKNTVYLQMNRLKPEDTAVYYCAKTNFSQSSRSNYDYWGQGTQVTVSS measurement="low polyreactivity"
ordered_residues=QVQLVESGGGLVQAGGSLRLSCAASGNTFVYYAMGWYRQAPGKERELVAGISRRSGSTYYADSVKGRFTISRDNAKNTVYLQMNSLKPEDTAVYYCAKGRTYLDADDYWGQGTQVTVSS measurement="low polyreactivity"

====

# Assay Notes: yeast display, Sf9 membrane polyspecificity reagent, FACS + sequencing; frameworks hold sequencing errors
Observation Type: polyreactivity (PSR sort gate)

ordered_residues=QVQLVESGGGLVQAGGSLRLSCAASGSIFRIKAMGWSRQAPGKERELVAAITGRVGSTYYADSVKGRFTISRDNAKNTVYLQMNSLKPEDTAVYYCAARAGSSRYTREYRYDYWGQGTQVTVSS measurement="high polyreactivity"
ordered_residues=QVQLVESGGGLVQAGGSLRLSCAASGSTFFHYAMGWYRQAPGKERELVAAISGSGGSTYYADSVKGRFTISRDNAKNTVYLQMNSLKPEDTAVYYCNARVWHYTSRTTFDYWGQGTQVTVSS measurement="low polyreactivity"
ordered_residues=QVHLAESAAGLDQAGGRLRLSCAAYGIIFYYYAMGWYRQAPGKERELVAAISGTGGRTYYADSVKGRFTISRDNAKNTVYLQMNSLKPEDTAVYYCNADDTPVPSIRFDSWGQGTQVTVSS measurement="low polyreactivity"
ordered_residues=QVQLVESGGGLVQAGGSLRLSCAASGNTFSSNAMGWYRQAPGKERELVAGITKSGGRTYYADSVKGRFTISRDNAKNTVYLQMNSLKPEDTAVYYCNRRAGPYSIPYYYWGQGTQVTVSS measurement="high polyreactivity"
ordered_residues=QLQLVESGGGLVQAGRRLRLTCAASGSIFQGNVMGWYRQAPGKERELVAAITWSGGRTYYADSVKGRFTISRDHAKNTVYLQMNSMNPDDTAVYYCNAVIGRELDYWGQGTKVTVSS measurement="high polyreactivity"
ordered_residues=QVQLVESGGGLVQAGGSLRLSCAASGIIFRNYAMGLYRQAPGKEREFVAAISGSGTSTYYADSVKGRFTISRDNAKNTVYLQMNSLKPEDTAVYYCAAEKYSYPYDYEYWGQGTQVTVSS measurement="high polyreactivity"
ordered_residues=QVQLVESGVCLVQAGGSLRLSCAASGSTITYNAMGWYRQAPGKERELVASISSGTTTYYADSVKGRFTISRDNAKNTVYLQMNSLHTEDTAVYYCAVDSCSRVQGWLAHNYDYWGQGTQVTVSS measurement="low polyreactivity"
ordered_residues=QVQLVESGGGLVQAGGSLRLSCAASRITFIYYAMGSYRQAPGKERELVAAINRSGGSTYYADSVKGRFTISRDIAKNTVYLQMNSLKPEDTAVYYCNADRSYWYIHSEYEYWGQGTQVTVSS measurement="high polyreactivity"
ordered_residues=QVQLVESGGGLVQAGGSLRLSCAASGRTFVPYVMGWYRQAPGKESELVASITSGGSTYYADSVKGRFTISRDNAKNTVYLQMNSLKPEDTAVYYCATRQSAERWGYYYWGQGTQVTVSS measurement="low polyreactivity"
ordered_residues=QVQLVESGGGLVQAGGSLRLSCAASGRTFFANAMGWYRQAPGKERELVAAITSNTGTTYYADSVKGRFTISRDNAKNTVYLQMNSLKPEDTAVYYCAARYTFRYEYWGQGTQVTVSS measurement="high polyreactivity"
ordered_residues=QVQLVESGGGLVQAGGSLRLSCAASGSIFYPYVMGWYRQAPGKERELVAAITTSVGSTYYADSVKGRFTISRDNAKNTVYLQMNSLKPEDTAVYYCAAKYFGSRRPGRYNYWGQGTQVTVSS measurement="high polyreactivity"

====

# Assay Notes: yeast display, Sf9 membrane polyspecificity reagent, FACS + sequencing; frameworks hold sequencing errors
Observation Type: polyreactivity (PSR sort gate)

ordered_residues=QVQLVESGGGLVQAGGSLRLSCAASGSTFKYYTMGWYIQAPGKERELVAAITWRGGSTYYADSVKGRFTISRDNAKNTVYLQMNSLKPEDTAVYYCNVLQRYGASRYDYWGQGTQVTVSS observation_type="polyreactivity (PSR sort gate)" measurement="high polyreactivity"
ordered_residues=QVQLVESGGGLVQAGGTLRLSCAASGSTFGYPMGGYRQSPGKERELVAAMTSTGGSTYYADSVKGRFTISRDNAKITVYLQMNSQKPEDTAVYYCAADAYWIRSRFLYRIRYNYWGLGTQVTVSS observation_type="polyreactivity (PSR sort gate)" measurement="high polyreactivity"

====

# Assay Notes: yeast display, Sf9 membrane polyspecificity reagent, FACS + sequencing; frameworks hold sequencing errors
Observation Type: polyreactivity (PSR sort gate)

ordered_residues=QVQLVESGGGLVQAGGSLRLSCAASGRTFSYNARGWYRPAPGKEMELVASISSSGTSTSYADSVKGRFTISRDYAKNTVYLQMNSLKPEDTAVYYCATVRYPYWYSGPQNSRGYWGQGSQVTVSS measurement="high polyreactivity"
ordered_residues=QVQHVESGGGLVQAGGSLRLSCAASGSTFWYNAMGWYRQAPGKERELVAAISYSGGRTYYADSVKERFTISRDNAKNTVYLQMNSLKPEDTAVYYCNAASRYGGDYWGQGTQVTVSS measurement="low polyreactivity"
ordered_residues=QVQLVESGGGLVQAGGSLRLSCAASGRTFRSYAMGWSRQAPGKGRELVAAISRSGGTTTYADSVKGRFTISRDNAKNTVYLQMNSLKPEDTAVYYCARGQNRYWQFHGAYDYWGQGTQVTVSS measurement="high polyreactivity"
ordered_residues=QVQLVESGGGLVQAGGSLRLSCAASGRIFYVYAMGWYRQAPGKERELVAAITSSGGTTYYADSVKGRFTISRDNAKNTVYLQMNSLKPEDTAVYYCNLIYRYGWGDYWGQGTQVTVSS measurement="high polyreactivity"
ordered_residues=QVQLVESGGGLVQAGGSLRLSCAASGSIFGINVMGWYRQAPGKERELVAAISRSGSSTYYADSVKGRFTISRDNAKNTVYLQMNSLKPEDTAVYYCNADRSTWTVLVWEYDYWGQGTQVTVSS measurement="low polyreactivity"
ordered_residues=QVQLVESGGGLVQAGGSLRLSCAASGRTFRYYAMGWYRQARGKERELVAAISKTGGSTYYADSVKGRFTISRDNAKNTVYLQMNSQKPEDTAVYYCAAQSGWGYSTFYYWGQGTQVTVSS measurement="high polyreactivity"
ordered_residues=QVQLVESGGGLVQAGGSLRIICAASGRTFDRYAMRGYRQAPGKERELVAASTRRGTTTYYADSVKVRFSISRDYAKNTVYLQMYSLKPEDTAVYYCAAKRGCVSRPDYGANDESWGQGTQVTVSS measurement="high polyreactivity"
ordered_residues=QVQLVESGGGLVQAGGSLRLSCAASRRNFGRYAMGWYRQAPGKETELVARISSGGSTHYADSVKGRFTISRDNAMNSVFLQMNSLKPEDTAVYYCAAGWGYWRSYGSWGQGTEVTVSS measurement="high polyreactivity"
ordered_residues=QDQLVESGVGLVQAGGSHRLSCAASGSIFGWYARGWYRQAPGKERELGATITTGGSTNYADSVKGRFTISRDNAKNTVYLQMNSLKPEDTAVYYCAAGYNTWYGQYGYWGQGTQVTVSS measurement="low polyreactivity"
ordered_residues=QVQLVESGGGLVQAGGSLRLSCAASGSTFPYYGMGWYRQAPGKERDLVAVISRRGTGTYYADSVKGRFTISRDNAKNTVYLQMNSLKPEDTAVYYCNTDTHGPGPTFDHYDYWGQGTQVTVSS measurement="low polyreactivity"
ordered_residues=QVQLVESGGGLVQAGGSLRLSCAASGRTFYGYAMGWYRQAPGKERELVAAISFSGGRTYYADSVKGRFTISRDNAKNTVYLQMNSLKPEDTAVYYCNRGLYPFDWVQGTQVTVSS measurement="high polyreactivity"

====

# Assay Notes: yeast display, Sf9 membrane polyspecificity reagent, FACS + sequencing; frameworks hold sequencing errors
Observation Type: polyreactivity (PSR sort gate)

ordered_residues=QVQLVESGGGLVQAGGSLRLSCAASGGTLRYYVMGWYRQAPGKDRELVAAISWAGDSTYYADSVKGRFTISRDNAKNTVYLQMNSLKPEDTAVYYCAATYYLTYYSGQANHGYDYWGQGTQVTVSS observation_type="polyreactivity (PSR sort gate)" measurement="low polyreactivity"
ordered_residues=QVQLVQSGGGLVQAGGSLRLSCSASGRIFSAYAMGWYRPAPGKERELVAAITWSGANTDYADSVKGRFTMSRDNAKYTVYLQMNSLKPEDTAVYYCNASVGRDSAYDYWGQGTQVTVSS observation_type="polyreactivity (PSR sort gate)" measurement="low polyreactivity"
ordered_residues=QVQLVESGGGLVQAGGSLRLSCAASGIIFYVYALGWYRQAPGKERELVAAISYTSSTYADSVKGLFTISRDNAKNTVYLQMNSLKPEDTAVYYCNTDYSDGYPAFDFWGQGTQVTVSS observation_type="polyreactivity (PSR sort gate)" measurement="low polyreactivity"

Source listed as the nanobody polyreactivity screen of Harvey et al. (2022).
